Values from ChEMBL document CHEMBL1268885

Tested On: Sodium channel protein type 10 subunit alpha (Homo sapiens)
Sequence (Q9Y5Y9 whole entry): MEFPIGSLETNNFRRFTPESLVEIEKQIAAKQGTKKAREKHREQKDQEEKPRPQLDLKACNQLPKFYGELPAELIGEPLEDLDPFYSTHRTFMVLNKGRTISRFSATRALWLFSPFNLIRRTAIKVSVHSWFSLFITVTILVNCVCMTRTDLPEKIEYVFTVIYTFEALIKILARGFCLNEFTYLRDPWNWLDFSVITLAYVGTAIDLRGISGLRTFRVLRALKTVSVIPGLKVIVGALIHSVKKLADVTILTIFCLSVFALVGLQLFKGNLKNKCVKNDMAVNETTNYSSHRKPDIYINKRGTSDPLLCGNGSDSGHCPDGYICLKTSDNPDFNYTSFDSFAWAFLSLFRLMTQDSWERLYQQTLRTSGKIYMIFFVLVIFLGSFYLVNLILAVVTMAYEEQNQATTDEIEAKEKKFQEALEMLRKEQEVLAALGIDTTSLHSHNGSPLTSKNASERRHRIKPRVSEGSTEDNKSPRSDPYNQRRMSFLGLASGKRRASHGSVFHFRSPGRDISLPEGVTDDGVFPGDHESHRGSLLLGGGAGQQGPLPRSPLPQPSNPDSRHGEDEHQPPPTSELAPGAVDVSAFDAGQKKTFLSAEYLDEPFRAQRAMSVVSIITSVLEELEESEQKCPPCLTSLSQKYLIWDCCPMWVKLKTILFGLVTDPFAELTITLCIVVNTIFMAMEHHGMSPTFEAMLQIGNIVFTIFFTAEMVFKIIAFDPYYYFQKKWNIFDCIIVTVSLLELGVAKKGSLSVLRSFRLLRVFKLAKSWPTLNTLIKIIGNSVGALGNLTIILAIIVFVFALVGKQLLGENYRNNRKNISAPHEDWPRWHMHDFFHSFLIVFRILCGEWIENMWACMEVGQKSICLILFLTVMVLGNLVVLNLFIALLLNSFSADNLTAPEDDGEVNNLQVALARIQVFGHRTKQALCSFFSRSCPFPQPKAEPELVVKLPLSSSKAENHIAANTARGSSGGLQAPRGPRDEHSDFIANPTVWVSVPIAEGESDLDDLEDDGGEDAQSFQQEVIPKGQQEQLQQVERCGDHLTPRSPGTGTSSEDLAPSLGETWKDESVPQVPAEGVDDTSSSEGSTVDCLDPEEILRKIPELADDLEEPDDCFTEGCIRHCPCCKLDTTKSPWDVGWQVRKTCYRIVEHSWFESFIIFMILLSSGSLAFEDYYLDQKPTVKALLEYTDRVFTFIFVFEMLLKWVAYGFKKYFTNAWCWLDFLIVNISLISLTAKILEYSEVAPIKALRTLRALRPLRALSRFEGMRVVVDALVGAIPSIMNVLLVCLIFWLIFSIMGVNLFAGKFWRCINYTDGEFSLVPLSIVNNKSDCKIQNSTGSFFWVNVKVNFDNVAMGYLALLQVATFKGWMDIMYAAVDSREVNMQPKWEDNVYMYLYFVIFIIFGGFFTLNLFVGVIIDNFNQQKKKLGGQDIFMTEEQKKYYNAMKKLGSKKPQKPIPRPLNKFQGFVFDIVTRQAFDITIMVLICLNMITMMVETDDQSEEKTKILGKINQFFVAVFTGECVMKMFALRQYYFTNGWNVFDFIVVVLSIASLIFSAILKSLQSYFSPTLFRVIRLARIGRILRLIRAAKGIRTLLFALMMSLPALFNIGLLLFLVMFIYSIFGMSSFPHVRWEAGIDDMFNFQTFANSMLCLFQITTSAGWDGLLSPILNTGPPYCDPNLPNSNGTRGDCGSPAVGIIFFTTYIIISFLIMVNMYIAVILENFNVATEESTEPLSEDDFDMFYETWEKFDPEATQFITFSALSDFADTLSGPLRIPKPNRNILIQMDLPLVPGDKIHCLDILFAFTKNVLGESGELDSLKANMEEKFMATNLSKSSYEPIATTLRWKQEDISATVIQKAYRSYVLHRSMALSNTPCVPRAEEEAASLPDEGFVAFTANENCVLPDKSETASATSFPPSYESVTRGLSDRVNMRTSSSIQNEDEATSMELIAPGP
Assay Comment: Inhibition of human NaV1.8 by electrophysiology
Reported values of pIC50 for individual entries
pIC50 here is simply -log10 of the concentration when that concentration is written in mol/L.

Reported pIC50 for O=C(NCc1ccccc1)c1cncc(-c2ccc(Cl)cc2)c1 was 7.66

---

Tested On: Sodium channel protein type 10 subunit alpha (Rattus norvegicus, UniProt Q62968)
Assay Comment: Inhibition of tetrodotoxin-resistant NaV1.8 in rat DRG neuron by electrophysiology
Value Kind: log10 IC50 (log10 of the value in nM)
Please be aware that the numbers have been log10-transformed from IC50 in nM.

Compound Structure | log10 IC50
O=C(NCc1cccnc1N1CCOCC1)c1cncc(-c2ccc(Cl)cc2)c1 | 1.99
Cc1cc(C)cc(NC(=O)c2nc(-c3ccc(OC(F)(F)F)cc3)no2)c1 | 2.91
Cc1cc(C)cc(NC(=O)c2cccc(-c3ccc(OC(F)(F)F)cc3)n2)c1 | 2.71
Cc1cc(C)cc(NC(=O)c2cnc(-c3ccc(OC(F)(F)F)cc3)o2)c1 | 2.98
Cc1cc(C)cc(NC(=O)c2nsc(-c3ccc(OC(F)(F)F)cc3)n2)c1 | 2.72
Cc1cc(C)cc(NC(=O)c2cncc(-c3ccc(F)cc3)c2)c1 | 2.32
O=C(NCc1cccnc1Cl)c1cncc(-c2ccc(Cl)cc2)c1 | 2.75
Cc1cc(C)cc(NC(=O)c2cncc(-c3ccc(OC(F)(F)F)cc3)n2)c1 | 1.53

Reported log10 IC50 for CCOc1ncccc1CNC(=O)c1cncc(-c2ccc(Cl)cc2)c1 was 1.51

Reported log10 IC50 for O=C(NCc1ccccc1Cl)c1cncc(-c2ccc(Cl)cc2)c1 was 1.82

Reported log10 IC50 for O=C(NCc1ccccc1N1CCOCC1)c1cncc(-c2ccc(Cl)cc2)c1 was 2.11

Reported log10 IC50 for O=C(NCc1cccnc1OCC(F)(F)F)c1cncc(-c2ccc(Cl)cc2)c1 was 1.45

Reported log10 IC50 for Cc1cc(C)cc(NC(=O)c2cncc(-c3ccc(Cl)cc3)c2)c1 was 1.94

---

Tested On: Sodium channel protein type 5 subunit alpha (Homo sapiens)
Assay Comment: Inhibition of human NaV1.5 by electrophysiology
Value Kind: pIC50
pIC50 here is simply -log10 of the concentration when that concentration is written in mol/L.

Reported pIC50 for O=C(NCc1cccnc1OCC(F)(F)F)c1cncc(-c2ccc(Cl)cc2)c1 was 5.33

---

Assay Comment: Volume of distribution at steady state in rat
Format: ADME, organism-based
Measurement Conditions: in vivo, read-out: Vdss
Value Kind: Vd (L/kg)
Report the figure in L/kg without appending any unit label.

Compound Structure | Value Kind | Unit Symbol | Value Observed
Cc1cc(C)cc(NC(=O)c2cncc(-c3ccc(C#N)cc3)c2)c1 | Vd | L/kg | 0.5

Let's switch to this compound now.
Reported Vd for O=C(NCc1cccnc1OCC(F)(F)F)c1cncc(-c2ccc(Cl)cc2)c1 was 2

---

Reported values of bioavailability for individual entries
Assay Comment: Oral bioavailability in rat at 3 mg/kg
Type: ADME, organism-based
Measurement Conditions: in vivo

Answered examples (2):
Compound Structure | bioavailability
O=C(NCc1cccnc1OCC(F)(F)F)c1cncc(-c2ccc(Cl)cc2)c1 | 95%
COc1cc(NC(=O)c2ccc(-c3ccc(Cl)cc3)o2)cc(OC)c1 | 10%

Reported bioavailability for Cc1cc(C)cc(NC(=O)c2cncc(-c3ccc(C#N)cc3)c2)c1 was 17%

---

Tested On: Sodium channel protein type 10 subunit alpha (Rattus norvegicus)
Assay Comment: Inhibition of tetrodotoxin-resistant NaV1.8 in rat DRG neuron by electrophysiology
Reported values of IC50 for individual entries
Report the figure in nM without appending any unit label.

Compound Structure | Value Observed
Cc1cc(C)cc(NC(=O)c2cncc(-c3ccc(C#N)cc3)c2)c1 | 91

Let's switch to this compound now.
Entry Cc1cc(C)cc(NC(=O)c2ccc(-c3ccc(OC(F)(F)F)cc3)o2)c1 under Sodium channel protein type 10 subunit alpha (Rattus norvegicus) had IC50 of 130

---

Tested On: Sodium channel protein type 10 subunit alpha (Mus musculus, UniProt Q6QIY3)
Sequence (Q6QIY3 whole entry): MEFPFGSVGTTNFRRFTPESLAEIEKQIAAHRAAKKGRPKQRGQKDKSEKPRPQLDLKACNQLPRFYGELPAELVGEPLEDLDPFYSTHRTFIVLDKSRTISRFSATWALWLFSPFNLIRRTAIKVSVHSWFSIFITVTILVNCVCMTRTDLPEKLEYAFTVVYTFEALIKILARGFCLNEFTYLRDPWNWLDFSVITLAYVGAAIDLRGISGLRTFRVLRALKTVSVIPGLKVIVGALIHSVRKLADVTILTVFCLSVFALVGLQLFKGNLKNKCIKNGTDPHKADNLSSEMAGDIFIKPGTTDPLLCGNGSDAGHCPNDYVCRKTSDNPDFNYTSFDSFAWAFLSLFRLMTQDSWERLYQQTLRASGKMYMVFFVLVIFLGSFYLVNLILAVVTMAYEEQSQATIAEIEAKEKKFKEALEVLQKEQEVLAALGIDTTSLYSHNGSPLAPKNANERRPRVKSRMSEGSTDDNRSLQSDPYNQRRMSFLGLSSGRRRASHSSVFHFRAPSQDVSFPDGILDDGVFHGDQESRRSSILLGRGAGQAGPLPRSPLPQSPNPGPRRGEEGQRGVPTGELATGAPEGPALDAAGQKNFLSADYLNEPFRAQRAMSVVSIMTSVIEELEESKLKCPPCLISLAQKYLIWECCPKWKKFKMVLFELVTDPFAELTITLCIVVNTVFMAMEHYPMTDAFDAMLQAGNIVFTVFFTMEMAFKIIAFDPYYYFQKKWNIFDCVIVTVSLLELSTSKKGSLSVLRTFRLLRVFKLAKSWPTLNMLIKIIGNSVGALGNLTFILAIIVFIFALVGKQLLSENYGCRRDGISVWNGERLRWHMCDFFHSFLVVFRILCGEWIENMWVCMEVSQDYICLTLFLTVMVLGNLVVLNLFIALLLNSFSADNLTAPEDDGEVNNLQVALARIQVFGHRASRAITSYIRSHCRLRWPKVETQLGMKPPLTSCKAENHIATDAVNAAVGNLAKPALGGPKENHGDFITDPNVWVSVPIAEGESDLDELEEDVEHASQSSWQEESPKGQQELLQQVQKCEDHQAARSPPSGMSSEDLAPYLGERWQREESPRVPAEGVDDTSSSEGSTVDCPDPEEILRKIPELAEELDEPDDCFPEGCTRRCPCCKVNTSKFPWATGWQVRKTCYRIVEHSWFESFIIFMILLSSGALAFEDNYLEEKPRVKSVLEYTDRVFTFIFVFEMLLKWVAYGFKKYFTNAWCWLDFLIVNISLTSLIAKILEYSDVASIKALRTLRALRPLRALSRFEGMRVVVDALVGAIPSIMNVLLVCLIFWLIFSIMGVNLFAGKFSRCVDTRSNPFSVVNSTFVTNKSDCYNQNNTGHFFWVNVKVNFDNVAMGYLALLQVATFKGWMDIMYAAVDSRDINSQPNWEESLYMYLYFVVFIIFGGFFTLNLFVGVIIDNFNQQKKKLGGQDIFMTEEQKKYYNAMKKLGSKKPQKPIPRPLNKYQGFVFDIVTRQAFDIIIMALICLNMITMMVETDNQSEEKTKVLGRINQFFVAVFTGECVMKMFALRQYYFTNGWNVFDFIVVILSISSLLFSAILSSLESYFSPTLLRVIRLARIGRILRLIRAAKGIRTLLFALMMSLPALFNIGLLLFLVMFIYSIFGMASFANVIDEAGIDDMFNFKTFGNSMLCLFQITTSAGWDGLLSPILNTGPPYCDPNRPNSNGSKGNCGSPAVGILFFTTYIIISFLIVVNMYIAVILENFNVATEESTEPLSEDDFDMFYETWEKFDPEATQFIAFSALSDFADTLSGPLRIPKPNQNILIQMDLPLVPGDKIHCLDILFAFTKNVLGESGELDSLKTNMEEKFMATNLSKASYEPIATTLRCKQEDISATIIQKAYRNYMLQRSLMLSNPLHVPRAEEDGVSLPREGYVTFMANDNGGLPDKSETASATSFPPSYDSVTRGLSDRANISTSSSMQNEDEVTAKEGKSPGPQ
Assay Comment: Inhibition of mouse NaV1.8 by isotopic flux assay
Reported values of pIC50 for individual entries
pIC50 here is simply -log10 of the concentration when that concentration is written in mol/L.

Answered examples (2):
Compound Structure | pIC50
CCOc1ncccc1CNC(=O)c1cncc(-c2ccc(Cl)cc2)c1 | 7.06
O=C(NCc1ccccc1Cl)c1cncc(-c2ccc(Cl)cc2)c1 | 7.09

Entry O=C(NCc1cccnc1OCC(F)(F)F)c1cncc(-c2ccc(Cl)cc2)c1 under Sodium channel protein type 10 subunit alpha (Mus musculus, UniProt Q6QIY3) had pIC50 of 7.06

Entry Cc1cc(C)cc(NC(=O)c2cccc(-c3ccc(OC(F)(F)F)cc3)n2)c1 under Sodium channel protein type 10 subunit alpha (Mus musculus, UniProt Q6QIY3) had pIC50 of 5.82

Entry O=C(NCc1cccnc1Cl)c1cncc(-c2ccc(Cl)cc2)c1 under Sodium channel protein type 10 subunit alpha (Mus musculus, UniProt Q6QIY3) had pIC50 of 6.17

Entry Cc1cc(C)cc(NC(=O)c2coc(-c3ccc(OC(F)(F)F)cc3)n2)c1 under Sodium channel protein type 10 subunit alpha (Mus musculus, UniProt Q6QIY3) had pIC50 of 5.85

Entry Cc1cc(C)cc(NC(=O)c2nc(-c3ccc(OC(F)(F)F)cc3)no2)c1 under Sodium channel protein type 10 subunit alpha (Mus musculus, UniProt Q6QIY3) had pIC50 of 6.06

---

Tested On: Sodium channel protein type 10 subunit alpha (Homo sapiens)
Assay Comment: Inhibition of human NaV1.8 by electrophysiology
Reported values of IC50 for individual entries
Report the figure in nM without appending any unit label.

Answered examples (8):
Compound Structure | Value Observed
O=C(NCc1cccnc1N1CCCCC1)c1cncc(-c2ccc(Cl)cc2)c1 | 14
Cc1cc(C)cc(NC(=O)c2cncc(-c3ccc(OC(F)(F)F)cc3)c2)c1 | 26
Cc1cc(C)cc(NC(=O)c2cncc(-c3ccc(Cl)cc3)c2)c1 | 9
Cc1cc(C)cc(NC(=O)c2cncc(-c3ccc(C#N)cc3)c2)c1 | 23
Cc1cc(C)cc(NC(=O)c2cncc(-c3ccc(OC(F)(F)F)cc3)n2)c1 | 21
Cc1cc(C)cc(NC(=O)c2csc(-c3ccc(OC(F)(F)F)cc3)n2)c1 | 51
Cc1cc(C)cc(NC(=O)c2cccc(-c3ccc(OC(F)(F)F)cc3)n2)c1 | 64
O=C(NCc1cccnc1Cl)c1cncc(-c2ccc(Cl)cc2)c1 | 140

Reported IC50 for O=C(NCc1ccccc1N1CCOCC1)c1cncc(-c2ccc(Cl)cc2)c1 was 10

---

Tested On: Sodium channel protein type 10 subunit alpha (Rattus norvegicus)
Assay Comment: Inhibition of tetrodotoxin-resistant NaV1.8 in rat DRG neuron by electrophysiology
Reported values of IC50 for individual entries
Report the figure in nM without appending any unit label.

Compound Structure | Unit Symbol | Value Observed
COc1cc(NC(=O)c2ccc(-c3ccc(Cl)cc3)o2)cc(OC)c1 | nM | 125
Cc1cc(C)cc(NC(=O)c2cncc(-c3ccc(OC(F)(F)F)cc3)c2)c1 | nM | 97

Let's switch to this compound now.
Reported IC50 for O=C(NCc1ccccc1)c1cncc(-c2ccc(Cl)cc2)c1 was 85
